The measurements presented in this section are drawn from ChEMBL document CHEMBL1129630.

Target: Retinoic acid receptor beta (Homo sapiens, UniProt P10826)
Sequence (P10826 whole entry): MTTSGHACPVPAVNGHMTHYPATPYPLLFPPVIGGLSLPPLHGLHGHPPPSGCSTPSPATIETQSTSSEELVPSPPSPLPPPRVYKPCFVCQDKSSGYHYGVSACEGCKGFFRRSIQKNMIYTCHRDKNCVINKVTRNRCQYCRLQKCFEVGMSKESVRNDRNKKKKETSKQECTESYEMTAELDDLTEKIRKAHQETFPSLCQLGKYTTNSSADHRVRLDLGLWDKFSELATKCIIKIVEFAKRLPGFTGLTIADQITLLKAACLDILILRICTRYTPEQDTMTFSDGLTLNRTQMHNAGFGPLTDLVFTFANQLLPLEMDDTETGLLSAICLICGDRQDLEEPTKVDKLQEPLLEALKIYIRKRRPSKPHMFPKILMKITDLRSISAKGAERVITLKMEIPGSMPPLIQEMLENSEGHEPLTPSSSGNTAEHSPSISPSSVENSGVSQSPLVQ
Assay: Transcriptional activation of Retinoic acid receptor RAR beta
Design: species or system Cercopithecidae
pEC50: −log10 of the molar value.
Test Readout: pEC50

>  <Structure String>
CC1(C)CCC(C)(C)c2cc(Sc3ccc(C(=O)O)cc3)ccc21

>  <Test Readout>
pEC50

>  <Value Measured>
6.24

$$$$

====

Target: UniProt:P28702
Sequence (P28702 whole entry): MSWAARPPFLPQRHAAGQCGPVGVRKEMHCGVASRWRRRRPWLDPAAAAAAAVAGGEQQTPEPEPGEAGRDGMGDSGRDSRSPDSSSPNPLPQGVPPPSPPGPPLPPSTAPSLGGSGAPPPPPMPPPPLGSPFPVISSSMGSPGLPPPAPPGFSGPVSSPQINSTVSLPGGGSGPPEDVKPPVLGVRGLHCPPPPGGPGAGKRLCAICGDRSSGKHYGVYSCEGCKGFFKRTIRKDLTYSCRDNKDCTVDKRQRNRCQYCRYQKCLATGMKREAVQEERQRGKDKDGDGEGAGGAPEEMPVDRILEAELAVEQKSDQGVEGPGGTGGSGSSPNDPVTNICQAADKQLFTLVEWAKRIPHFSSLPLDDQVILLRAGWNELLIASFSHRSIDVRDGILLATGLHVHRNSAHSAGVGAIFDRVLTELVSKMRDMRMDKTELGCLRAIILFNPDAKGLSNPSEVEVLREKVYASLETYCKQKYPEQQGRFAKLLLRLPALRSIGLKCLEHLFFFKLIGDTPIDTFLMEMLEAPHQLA
Experiment: Transcriptional activation of Retinoid X receptor RXR beta
This listing pairs molecules with measured EC50.

>  <Molecule>
Cc1cc2c(cc1Sc1ncc(C(=O)O)s1)C(C)(C)CCC2(C)C

>  <EC50, nM>
1300

$$$$
>  <Molecule>
Cc1cc2c(cc1[S+]([O-])c1ccc(C(=O)O)cc1)C(C)(C)CCC2(C)C (stereo not drawn)

>  <EC50, nM>
3000

$$$$
>  <Molecule>
Cc1cc2c(cc1Sc1ccc(C(=O)O)cc1)C(C)(C)CCC2(C)C

>  <EC50, nM>
300

$$$$
